Molecular target: fMet-Leu-Phe receptor (Homo sapiens) (UniProt P21462)
Sequence (P21462 whole entry, looked up): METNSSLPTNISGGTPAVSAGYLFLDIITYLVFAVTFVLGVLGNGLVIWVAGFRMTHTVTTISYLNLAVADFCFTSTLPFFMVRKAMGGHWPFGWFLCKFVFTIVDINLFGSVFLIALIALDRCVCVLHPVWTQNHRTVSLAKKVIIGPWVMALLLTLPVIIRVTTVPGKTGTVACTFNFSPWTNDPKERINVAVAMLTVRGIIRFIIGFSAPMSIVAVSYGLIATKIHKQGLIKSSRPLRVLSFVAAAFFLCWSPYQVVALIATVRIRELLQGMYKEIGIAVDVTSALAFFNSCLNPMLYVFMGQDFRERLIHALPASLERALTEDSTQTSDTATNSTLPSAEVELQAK
Test: FPR antagonists blocking calcium signaling, confirmation, cell-based, calcium response (AID 699)
Settings: FPR1 cells, ligand-induced calcium response inhibition; active compounds read high; concentration not given here
measured.quantity: inhibition (%)
Provide only the numeric value, understood in %.

CCOc1ccc(C2C(C(=O)c3ccco3)=C(O)C(=O)N2CCCn2ccnc2)cc1 (stereo unspecified)	23.6
C=CCOc1ccc(C2C(C(=O)c3ccco3)=C(O)C(=O)N2Cc2cccnc2)cc1 (stereo unspecified)	-0
COc1ccccc1C1/C(=C(/O)c2ccccc2)C(=O)C(=O)N1CC(C)C (stereo unspecified)	99
COc1ccccc1Oc1c(C)oc2cc(OC(=O)c3ccco3)ccc2c1=O	93.7
CCOc1cccc(/C(O)=C2/C(=O)C(=O)N(CCOC)C2c2ccc(C)o2)c1 (stereo unspecified)	90.5

Next molecule, please.
(Q) Give the measured inhibition for COC(=O)c1[nH]c(C)c(/C(O)=C2\C(=O)C(=O)N(CCN3CCOCC3)C2c2cccs2)c1C (stereo unspecified)
(A) 93.9
